Data origin: patent US12466831B2

- assayed target: human A2b adenosine receptor (Homo sapiens, UniProt P29275)
- Construct: membranes made from them
- Sequence (P29275 whole entry): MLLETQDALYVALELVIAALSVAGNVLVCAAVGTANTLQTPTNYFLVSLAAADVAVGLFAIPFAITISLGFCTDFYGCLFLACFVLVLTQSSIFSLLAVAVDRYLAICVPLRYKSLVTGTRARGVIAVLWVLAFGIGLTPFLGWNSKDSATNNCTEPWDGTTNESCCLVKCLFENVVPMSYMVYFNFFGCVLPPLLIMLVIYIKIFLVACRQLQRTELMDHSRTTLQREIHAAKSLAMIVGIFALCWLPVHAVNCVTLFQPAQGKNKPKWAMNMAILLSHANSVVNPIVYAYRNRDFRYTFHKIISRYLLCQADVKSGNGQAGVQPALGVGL
- run description: A2b binding affinity, radioligand filtration binding assay
- test settings: tritiated proprietary A2b antagonist, HEK293 membranes expressing human A2b
measurement kind: IC50 (nM)

Reference set, count: 3
CCn1cc(N2C[C@@H](c3nc4c(C)c(-c5cccc(F)c5)nc(N)n4n3)CC[C@H]2C)cn1: 2150
Cc1c(-c2ncco2)nc(N)n2nc([C@@H]3CCCNC3)nc12: 1040
Cc1c(-c2ncco2)nc(N)n2nc(C3CCN(c4cnn(CC(C)(C)O)c4)C3)nc12 (single isomer, unassigned) [Example 3.15-2]: 9090

A: Cc1c(-c2ncco2)nc(N)n2nc(C3CCCC(C)(O)C3)nc12 (single isomer, unassigned) [Example 8.3-1]
B: Cc1c(-c2cccc(F)c2)nc(N)n2nc([C@@H]3CCCNC3)nc12
C: Cc1c(-c2ncco2)nc(N)n2nc([C@@H]3CC[C@H](C)NC3)nc12
Order the records so the highest IC50 appears first and the lowest last. Submit the labels in the order that the ranking request calls for. A, C, B

* * *

- assayed target: human A2b adenosine receptor (Homo sapiens)
- Construct: membranes made from them
- run description: A2b binding affinity, radioligand filtration binding assay
- test settings: tritiated proprietary A2b antagonist, HEK293 membranes expressing human A2b
pIC50: −log10 of the molar value.
measurement kind: pIC50

Cc1c(-c2cccc(F)c2)nc(N)c2nc(C3CCCC(C)(O)C3)nn12 (single isomer, unassigned) [Example 8.11-2]: 6.62
Cc1c(-c2ncco2)nc(N)n2nc([C@@H]3CCCN(c4cnn(C5CCOCC5)c4)C3)nc12 [Example 3.6]: 6.41

P: Cc1c(-c2cccc(F)c2)nc(N)c2nc(C3CCC(C)(O)C3)nn12 (single isomer, unassigned) [Example 8.8]
Q: Cc1c(-c2cccc(F)c2)nc(N)c2nc(C3CCCC(C)(O)C3)nn12 (single isomer, unassigned) [Example 8.10-2]
Given the listed items, does P or Q have the lesser reported pIC50? Kindly give the label for the entry you pick. Q
(Q: 5.60, P: 6.46)

* * *

- assayed target: human A2a adenosine receptor (Homo sapiens, UniProt P29274)
- Construct: purchased Perkin Elmer RBHA2aM400UA; host or cells: HEK293 or CHO cells (recombinant expression)
- Sequence (P29274 whole entry): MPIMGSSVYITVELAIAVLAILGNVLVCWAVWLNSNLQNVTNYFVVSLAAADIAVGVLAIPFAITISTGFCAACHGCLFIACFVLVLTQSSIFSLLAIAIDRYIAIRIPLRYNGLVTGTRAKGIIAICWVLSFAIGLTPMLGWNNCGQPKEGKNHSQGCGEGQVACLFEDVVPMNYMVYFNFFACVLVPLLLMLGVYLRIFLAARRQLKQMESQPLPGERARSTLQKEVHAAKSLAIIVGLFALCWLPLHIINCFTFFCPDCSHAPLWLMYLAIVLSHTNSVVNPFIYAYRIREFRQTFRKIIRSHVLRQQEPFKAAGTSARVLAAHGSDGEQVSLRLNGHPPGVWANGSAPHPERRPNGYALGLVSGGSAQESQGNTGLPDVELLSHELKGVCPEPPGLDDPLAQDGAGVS
- run description: A2a binding affinity using radioligand binding, Method (A)
- test settings: Method (A): [3H]SCH58261 filtration binding, membranes expressing human A2a
measurement kind: IC50 (nM)

I: Cc1c(-c2ncco2)nc(N)n2nc([C@@H]3CC[C@H](C)N(c4cnn(CC(C)(C)O)c4)C3)nc12 [Example 2.12]
II: Cc1c(-c2ncco2)nc(N)c2nc(C3CCCC(C)(O)C3)nn12 (single isomer, unassigned) [Example 8.4]
III: Cc1c(-c2ncco2)nc(N)n2nc([C@@H]3CCCNC3)nc12 [Example 2.3]
IV: Nc1nc(-c2ccccc2)cc2nc([C@@H]3CC(F)(F)CN3)nn12 [Example 2.1]
Thanks in advance: please rank these 4 entries by IC50, highest to lowest. Submit the labels in the order that the ranking request calls for. III, IV, II, I

* * *

- assayed target: human A2a adenosine receptor (Homo sapiens)
- Construct: purchased Perkin Elmer RBHA2aM400UA; host or cells: HEK293 or CHO cells (recombinant expression)
- run description: A2a binding affinity using radioligand binding, Method (A)
- test settings: Method (A): [3H]SCH58261 filtration binding, membranes expressing human A2a
measurement kind: IC50 (nM)

Cc1c(-c2cccc(F)c2)nc(N)c2nc(C3CCCC(C)(O)C3)nn12 (single isomer, unassigned) [Example 8.11-2]: 13.5

1: Cc1c(-c2ncco2)nc(N)n2nc(C3CCN(c4cnn(CC(C)(C)O)c4)C3)nc12 (single isomer, unassigned) [Example 3.15-1]
2: CCn1cc(N2C[C@@H](c3nc4c(C)c(-c5ncco5)nc(N)n4n3)CC[C@H]2C)cn1
3: Cc1c(-c2cccc(F)c2)nc(N)n2nc([C@@H]3CCCN(c4cnn(CC(C)(C)O)c4)C3)nc12
Arrange these 3 compounds in increasing order of IC50. Submit the labels in the order that the ranking request calls for. 2, 3, 1

* * *

- assayed target: human A2a adenosine receptor (Homo sapiens)
- Construct: purchased Perkin Elmer RBHA2aM400UA; host or cells: HEK293 or CHO cells (recombinant expression)
- run description: A2a binding affinity using SPA, Method (B)
- test settings: Method (B): [3H]SCH58261 SPA, membranes expressing human A2a
measurement kind: IC50 (nM)

Nc1nc(-c2ccccc2)c(C2CC2)c2nc([C@@H]3CCCN(CC(F)(F)F)C3)nn12: 81.7

P: CC(C)(O)c1c(-c2ccccc2)nc(N)n2nc([C@@H]3CCCN(CC(F)(F)F)C3)nc12
Q: C=C(C)c1c(-c2ccccc2)nc(N)n2nc([C@@H]3CCCN(CC(F)(F)F)C3)nc12
R: Nc1nc(-c2ccccc2)cc2nc([C@@H]3CCCN(CC(F)F)C3)nn12
Arrange these 3 compounds in increasing order of IC50. Submit the labels in the order that the ranking request calls for. R, Q, P

* * *

- assayed target: human A2b adenosine receptor (Homo sapiens, UniProt P29275)
- Construct: membranes made from them
- run description: A2b binding affinity, radioligand filtration binding assay
- test settings: tritiated proprietary A2b antagonist, HEK293 membranes expressing human A2b
measurement kind: IC50 (nM)

Reference set, count: 8
Cc1c(-c2ncco2)nc(N)n2nc([C@@H]3CCCN(c4cnn(C(C)C(C)(C)O)c4)C3)nc12 (single isomer, unassigned) [Example 2.10]: 261
Cc1c(-c2ncco2)nc(N)n2nc(C3CCCC(C)(O)C3)nc12 (single isomer, unassigned) [Example 8.3-2]: 64.5
Cc1c(-c2ncco2)nc(N)c2nc(C3(c4ncccc4F)CC3)nn12: 2910
Cc1c(-c2ncco2)nc(N)c2nc(C3CCC(C)(O)C3)nn12 (single isomer, unassigned) [Example 8.6]: 142
Cc1c(-c2cccc(F)c2)nc(N)n2nc([C@@H]3CCCN(c4cnn(CC(C)(C)O)c4)C3)nc12: 542
Cc1c(-c2ncco2)nc(N)c2nc([C@@H]3CCCN(c4cnn(C)c4)C3)nn12 (single isomer, unassigned): 770
Cc1c(-c2ncco2)nc(N)n2nc(C3CCN(CC(F)(F)F)C3)nc12 (racemic): 618
Cc1c(-c2cc(F)ccc2F)nc(N)c2nc([C@@H]3CCCN(c4cnn(C)c4)C3)nn12 (single isomer, unassigned): 436

A: Cc1nn(CC(C)(C)O)cc1N1CCC[C@@H](c2nc3c(C)c(-c4ncco4)nc(N)n3n2)C1
B: Cc1c(-c2cccc(F)c2)nc(N)c2nc(C3CCC(C)(O)C3)nn12 (single isomer, unassigned) [Example 8.9]
C: CCn1cc(N2CCC[C@@H](c3nc4c(C)c(-c5ncco5)nc(N)n4n3)C2)cn1
D: CNC(=O)C(C)(C)n1cc(N2CCC[C@@H](c3nc4c(C)c(-c5ncco5)nc(N)n4n3)C2)cn1
E: Cc1c(-c2ncco2)nc(N)n2nc([C@@H]3CCCN(c4cnn(CC(C)(C)O)c4)C3)nc12
Order the records so the highest IC50 appears first and the lowest last. Submit the labels in the order that the ranking request calls for. B, A, E, C, D
(B: 2090 nM, A: 553 nM, E: 224 nM, C: 155 nM, D: 85.5 nM)

* * *

- assayed target: human A2a adenosine receptor (Homo sapiens)
- Construct: purchased Perkin Elmer RBHA2aM400UA; host or cells: HEK293 or CHO cells (recombinant expression)
- run description: A2a binding affinity using radioligand binding, Method (A)
- test settings: Method (A): [3H]SCH58261 filtration binding, membranes expressing human A2a
pIC50: −log10 of the molar value.
measurement kind: pIC50

Reference set, count: 5
Cc1c(-c2ncco2)nc(N)n2nc(C3CCN(CC(F)(F)F)C3)nc12 (racemic) [Example 9.1]: 7.49
Cc1c(-c2ncco2)nc(N)n2nc([C@H]3CC[C@@H](C)N(c4cnn(CC(C)(C)O)c4)C3)nc12 [Example 2.13]: 7.32
Cc1c(-c2ncco2)nc(N)n2nc(C3CCN(c4cnn(CC(C)(C)O)c4)C3)nc12 (single isomer, unassigned) [Example 3.15-2]: 6.36
Cc1c(-c2ncco2)nc(N)n2nc(C3CCCC(C)(O)C3)nc12 (single isomer, unassigned) [Example 8.3-2]: 9.05
Cc1cc(N2CCC[C@@H](c3nc4c(C)c(-c5ncco5)nc(N)n4n3)C2)cnc1OC(F)F [Example 3.13]: 8.80

P: Cc1c(-c2ncco2)nc(N)n2nc([C@@H]3CCCN(c4cnn(CC(C)(C)O)c4)C3)nc12 [Example 3.7]
Q: Cc1c(-c2cccc(F)c2)nc(N)c2nc(C3CCC(C)(O)C3)nn12 (single isomer, unassigned) [Example 8.9]
R: Cc1c(-c2ncco2)nc(N)c2nc(C3CCC(C)(O)C3)nn12 (single isomer, unassigned) [Example 8.7]
S: Cc1cc(N2CCC[C@@H](c3nc4c(C)c(-c5ncco5)nc(N)n4n3)C2)cn(C(F)F)c1=O [Example 3.14]
T: CCn1cc(N2C[C@H](c3nc4c(C)c(-c5ncco5)nc(N)n4n3)CC[C@@H]2C)cn1 [Example 2.14]
Order the records so the highest pIC50 appears first and the lowest last. Submit the labels in the order that the ranking request calls for. S, T, P, R, Q
(S: 9.70, T: 8.92, P: 8.33, R: 6.85, Q: 6.45)

P: CNC(=O)C(C)(C)n1cc(N2CCC[C@@H](c3nc4c(C)c(-c5ncco5)nc(N)n4n3)C2)cn1 [Example 3.4]
Q: Cc1c(-c2ncco2)nc(N)n2nc([C@@H]3CCCN(c4cnn(C5CCOCC5)c4)C3)nc12 [Example 3.6]
Which record would sort first by descending pIC50, P or Q ? Kindly give the label for the entry you pick. Q

1: Cc1c(-c2ncco2)nc(N)c2nc(C3CCC(C)(O)C3)nn12 (single isomer, unassigned) [Example 8.6]
2: Cc1c(-c2cccc(F)c2)nc(N)c2nc(C3CCCC(C)(O)C3)nn12 (single isomer, unassigned) [Example 8.11-1]
Which record would sort first by descending pIC50, 1 or 2 ? Kindly give the label for the entry you pick. 1
(1: 8.19, 2: 6.88)
